From: paper PMC8196563

IC50 values, listed per item
Tested on: Leishmania amazonensis promastigotes
Assay: In vitro leishmanicidal activity against promastigotes
Assay type: cell-based
Details: L. amazonensis Clone 1 NHOM-BR-76-LTB-012 promastigotes, 72 h, 26 °C, triplicate, read-out: Leishmanicidal activity L.a, IC50
Experimental: Leishmanicidal activity was assayed according to Williams, with some modi-fication. Promastigotes of Leishmania: L. amazonensis, Clone 1, NHOM-BR-76-LTB-012 (Lma, donated by the Paul Sabatier Université, France) and L. braziliensis M2904 C192 RJA (M2904, donated by Dr. Jorge Arévalo from Universidad Peruana Cayetano Heredia, Peru). The strains were cultured in Schneider’s insect medium (pH 6.2), supplemented with 10% FBS and incubated in 96-microwell plates at 26 °C. […]
metric: IC50 (µg/mL)

COC(=O)CC1C(C)(C)OC(=O)C=C2OC3(C)C(C(OC(=O)C(C)C)C(OC(C)=O)C4(C)C(c5ccoc5)CC(=O)C34)C21C (stereo not shown) = 92
CCCCCCCCCCCCCCCCOP(=O)([O-])OCC[N+](C)(C)C [Miltefosine, reference compound] = 5
